Observed pIC50, system UniProtKB P35372.
Sequence (P35372 whole entry): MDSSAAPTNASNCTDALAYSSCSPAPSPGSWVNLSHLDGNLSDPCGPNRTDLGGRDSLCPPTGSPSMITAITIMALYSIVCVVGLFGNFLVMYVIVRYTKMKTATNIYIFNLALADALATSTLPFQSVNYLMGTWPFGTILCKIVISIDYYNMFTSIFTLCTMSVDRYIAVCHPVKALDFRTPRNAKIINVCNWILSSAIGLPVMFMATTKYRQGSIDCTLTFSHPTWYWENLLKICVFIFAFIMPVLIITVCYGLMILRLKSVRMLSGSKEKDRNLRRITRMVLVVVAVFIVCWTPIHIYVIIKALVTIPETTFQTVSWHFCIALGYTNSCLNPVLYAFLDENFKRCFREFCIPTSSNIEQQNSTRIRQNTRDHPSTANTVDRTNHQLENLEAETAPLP
pIC50: −log10 of the molar value.

CCC(=O)N(CC1CCCN(CCc2ccccc2)C1)C(C)c1ccccc1 (single isomer, unassigned) [Compound 225]    > 6.00

Request: I am curious: what pIC50 value has been reported for CCC(=O)N(CC1CCCN(CCc2ccccc2)C1)C(C)c1ccccc1 (single isomer, unassigned) [Compound 223] ?
Response: > 7.00

Request: I am curious: what pIC50 value has been reported for CCC(=O)N(CC1CCCN(CCc2ccccc2)C1)C(C)c1ccccc1 (single isomer, unassigned) [Compound 224] ?
Response: > 6.00

Request: I am curious: what pIC50 value has been reported for CCC(=O)N(CC1CCCN(CCc2ccccc2)C1)C(C)c1ccccc1 (single isomer, unassigned) [Compound 222] ?
Response: < 6.00

Request: I am curious: what pIC50 value has been reported for CCC(=O)N(CC1CCCN(CCc2ccccc2)C1)C(C)c1ccccc1 (single isomer, unassigned) [Compound 221] ?
Response: > 6.00

Request: I am curious: what pIC50 value has been reported for CCC(=O)N(CC1CCCN(CCc2ccccc2)C1)C(C)c1ccccc1 (single isomer, unassigned) [Compound 220] ?
Response: > 6.00

This collection of values is drawn from patent US7361666B2.
